assayedTarget: human cyclin-dependent kinase 2 (Cdk2) (Homo sapiens, UniProt P24941)
Construct: poly-histidine; made in house; host or cells: E. coli
experiment: Kinetic thiol consumption assay with wild type Cdk2 (C177)
Assay type: binding
assayConditions: model thiol Cdk2[C177A, F80C, K278C]
Mark False for k(Cdk2)/k(Cdk2_mut) rate enhancement values under 0.5, and True for everything at or above.

C=CC(=O)Nc1ccc(C(=O)NC2CCCC2)cc1 : False
C=CC(=O)N1CCCc2sccc2C1 : True
C=CC(=O)NCCNC(=O)c1ccccc1 : False
C=CC(=O)NC1CC2CC1C1CCCC21 (stereo not shown) : True

Lookup: # check: k(Cdk2)/k(Cdk2_mut) rate enhancement of C=CC(=O)N1CCN(Cc2ccc(Cl)cc2)CC1 is greater than or equal to 0.5
Found: False

Lookup: # iterate: C=CC(=O)Nc1cccc2ncccc12
Found: False

Lookup: # iterate: C=CC(=O)NC1C2CC3CC(C2)CC1C3 (stereo not shown)
Found: True

Lookup: # iterate: C=CC(=O)N1CCC2(CC1)CC2C(=O)OC (stereo not shown)
Found: True

Lookup: # iterate: C=CC(=O)N1CCCCCC1C/C=C/c1ccccc1 (stereo not shown)
Found: False

Lookup: # iterate: C=CC(=O)N1CCCN2C(=O)CCC12c1ccc(OC)cc1 (stereo not shown)
Found: True

Lookup: # iterate: C=CC(=O)N1CC2CC2C1 (stereo not shown)
Found: True

Lookup: # iterate: C=CC(=O)N1CC(CCN2CCCC2=O)c2ccccc21 (stereo not shown)
Found: True

Lookup: # iterate: C=CC(=O)N1CC2(CCC2)c2c(F)cccc21
Found: False

Lookup: # iterate: C=CC(=O)Nc1cccc(-c2nnnn2C2CC2)c1
Found: True

Lookup: # iterate: C=CC(=O)N1CCCC2(CCCc3ccccc32)C1 (stereo not shown)
Found: True

Lookup: # iterate: C=CC(=O)NC(Cc1ccccc1)C(O)CF (stereo not shown)
Found: True

Lookup: # iterate: C=CC(=O)Nc1ccc(C(=O)OC)cc1
Found: True

Lookup: # iterate: C=CC(=O)N(Cc1ccc2c(c1)CCO2)C1CCCC1
Found: True

Lookup: # iterate: C=CC(=O)N1CCCCCC1c1cccs1 (stereo not shown)
Found: True

Lookup: # iterate: C=CC(=O)N1CCCCCC1c1cccnc1 (stereo not shown)
Found: False

Lookup: # iterate: C=CC(=O)N(c1ccc2c(c1)OCCO2)C1CC1
Found: True

Lookup: # iterate: C=CC(=O)N1C(C(=O)c2ccccc2)C1c1ccccc1 (stereo not shown)
Found: False

Lookup: # iterate: C=CC(=O)N(CCCN1CCOCC1)Cc1ccncc1
Found: True

Lookup: # iterate: C=CC(=O)Nc1[nH]nc(C2CC2)c1-c1ccc2c(c1)OCO2
Found: True

Lookup: # iterate: C=CC(=O)NCc1ccc(-c2ccccc2)cc1
Found: True

Lookup: # iterate: C=CC(=O)Nc1ccc(-c2ncccn2)cc1
Found: False

Lookup: # iterate: C=CC(=O)N(C(=O)C=C)c1c2ccccc2n2c(C)nc3ccccc3c12
Found: False

* * *

Collected Rate enhancement, Cdk2 R122C values appear next to each entry.
assayedTarget: Cdk2(R122C) (C177A) (Homo sapiens, UniProt P24941, C177A/R122C)
Construct: poly-histidine; made in house; host or cells: E. coli
experiment: Kinetic thiol consumption assay with Cdk2 mutant R122C
Type: binding
Design: key: rate constant with Cdk2 ÷ rate constant with model thiol (fold)
assayConditions: Cdk2 R122C, additional mutation C177A

Example entries begin here.
C=CC(=O)NC1(c2noc(C)n2)CCCCCC1 : 0.1023
C=CC(=O)N1CCCc2sccc2C1 : 0.6416
C=CC(=O)N1CCCC1c1cnc2ccccc2c1 (stereo not shown) : 0.5786
CN(C#N)Cc1ccccc1 : 0.132
C=CC(=O)N1CCN(c2ccccc2[N+](=O)[O-])CC1 : 1.145
C=CC(=O)N(CCCN1CCOCC1)Cc1ccncc1 : 0.136

Now let's try a different one.
Lookup: # lookup: Rate enhancement, Cdk2 R122C of CC1CN(C(=O)CCl)CC(C)O1 (stereo not shown)
Found: 0.02811

* * *

assayedTarget: human cyclin-dependent kinase 2 (Cdk2) (Homo sapiens)
Construct: poly-histidine; made in house; host or cells: E. coli
experiment: Kinetic thiol consumption assay with wild type Cdk2 (C177)
Type: binding
Design: key: k(Cdk2) divided by k(model thiol)
assayConditions: Cdk2 WT, no additional mutations
Category | rule: reported Rate enhancement, Cdk2 WT within range, see low (below 0.5), moderate (0.5 to below 1), high (1 or more)

Study these solved cases before continuing.
C=CC(=O)N1CCC2(CCCN(Cc3ccccc3)C2)C1 (stereo not shown) : low
C=CC(=O)N1CCN(c2ccccc2C(N)=O)CC1 : low
C=CC(=O)N1CCN(C(=O)OCC)CC1c1cccs1 (stereo not shown) : moderate
C=CC(=O)N1CCCN2C(=O)CCC12c1ccc(OC)cc1 (stereo not shown) : moderate

Lookup: # bin label for C=CC(=O)NCC1CCCN1S(=O)(=O)c1ccc(C(=O)O)cc1 (stereo not shown)
Found: low

Lookup: # iterate: C=CC(=O)NCCCN(C(=O)C1CCC1)C1CC1
Found: moderate

Lookup: # iterate: C=CC(=O)N1CC(OCc2cccc3ccccc23)C1
Found: high

Lookup: # iterate: FC(F)(F)c1cc(Cl)ncc1Br
Found: low

Lookup: # iterate: C=CC(=O)NC1CC2CC1C1CCCC21 (stereo not shown)
Found: moderate

Lookup: # iterate: C=CC(=O)N1CC2CCN(Cc3ccccc3)C2C1 (stereo not shown)
Found: low

Lookup: # iterate: C=CC(=O)Nc1cccc(C(F)(F)F)c1 [BN-80]
Found: high

Lookup: # iterate: C=CC(=O)Nc1nc2c(s1)CCCCCC2
Found: high

Lookup: # iterate: C=CC(=O)N1CC2CCCCCCC21 (stereo not shown)
Found: moderate

Lookup: # iterate: C=CC(=O)Nc1cccc(C(=O)c2ccccc2)c1
Found: high

Lookup: # iterate: C=CC(=O)Nc1ccc(C(=O)NC2CCCC2)cc1
Found: high

Lookup: # iterate: C=CC(=O)N(CC(=O)NC1CC1)C1CC1
Found: low

Lookup: # iterate: O=C(c1ccccc1)[C@@H]1O[C@H]1c1ccccc1
Found: high

Lookup: # iterate: C=CC(=O)N1CCC2(CC1)NC(=O)C1(CCCCC1)N2
Found: low

Lookup: # iterate: C=CC(=O)N1CC2CC2C1 (stereo not shown)
Found: low

Lookup: # iterate: C=CC(=O)Nc1ccccc1N1CCOCC1
Found: moderate

Lookup: # iterate: C=CC(=O)N1CCCc2cc(C(=O)OC)ccc21
Found: high

Lookup: # iterate: C=CC(=O)N1CCC2(CCCCCC2)C1
Found: low

Lookup: # iterate: C=CC(=O)NC1(C(N)=O)CCCCC1
Found: high

* * *

assayedTarget: human cyclin-dependent kinase 2 (Cdk2) (Homo sapiens)
Construct: poly-histidine; made in house; host or cells: E. coli
experiment: Kinetic thiol consumption assay with wild type Cdk2 (C177)
Assay type: binding
assayConditions: model thiol Cdk2[C177A, F80C, K278C]
readoutLabel: k(Cdk2)/k(Cdk2_mut) rate enhancement
Answer with a bare number; do not write a unit.

C=CC(=O)Nc1ccc(C(=O)c2ccccc2)cc1 : 0.3223
C=CC(=O)N1CCn2c(Cc3ccccc3)nnc2C1 : 21.31
C=CC(=O)Nc1ccc(C23CC4CC(CC(O)(C4)C2)C3)cc1 : 0.3625
C=CC(=O)NC1c2ccccc2Oc2ccccc21 : 3.343
C=CC(=O)N1CCc2cc(-c3cccc(F)c3)ccc21 : 0.3151

Lookup: # lookup: k(Cdk2)/k(Cdk2_mut) rate enhancement of C=CC(=O)Nc1cccc(C(F)(F)F)c1 [EL-1007]
Found: 0.5928

Lookup: # iterate: C=CC(=O)N1CCC(c2nc3ccccc3[nH]2)CC1
Found: 1.055

Lookup: # iterate: C=CC(=O)Nc1nc2c(s1)CCCCCC2
Found: 0.3231

Lookup: # iterate: C=CC(=O)N1CCCCCC1c1ccc(N(C)C)cc1 (stereo not drawn)
Found: 0.7455

Lookup: # iterate: C=CC(=O)NCc1ccc(OC)cc1
Found: 0.5882

Lookup: # iterate: C=CC(=O)N1CC2CCCCCCC21 (stereo not drawn)
Found: 2.745

Lookup: # iterate: C=CC(=O)N1CCN(S(C)(=O)=O)CC1c1ccccc1 (stereo not drawn)
Found: 2.854

* * *

Collected Rate constant with Cdk2 WT values appear next to each entry.
assayedTarget: human cyclin-dependent kinase 2 (Cdk2) (Homo sapiens)
Construct: poly-histidine; made in house; host or cells: E. coli
experiment: Kinetic thiol consumption assay with wild type Cdk2 (C177)
Type: binding
assayConditions: Protein: Cdk2; cysteine position WT; in h^-1
Answer with a bare number; do not write a unit.

Example entries begin here.
C=CC(=O)Nc1ccccc1C#N [EL-1178] : 0.1611
C=CC(=O)NCC1CN(C2CC2)CCO1 (centres unmarked) [CA-038] : 0.005901
C=CC(=O)N1CCC2CCC(C1)N2C (centres unmarked) [CA-143] : 0.01115
C=CC(=O)NC(C)c1ccc2c(c1)OCO2 (centres unmarked) [EL-1051] : 0.003025
C=CC(=O)N1CCn2cccc2C1c1ccccc1 (centres unmarked) [CA-187] : 0.02811

Lookup: # lookup: Rate constant with Cdk2 WT of C=CC(=O)N1CCC2(CC1)CC2C(=O)OC (centres unmarked) [CA-039]
Found: 0.0005702

Lookup: # iterate: C=CC(=O)Nc1ccc(C(=O)NC2CCCC2)cc1 [EL-1114]
Found: 0.07947

Lookup: # iterate: C=CC(=O)N1CCc2sccc2C1c1cccs1 (centres unmarked) [CA-056]
Found: 0.02004

Lookup: # iterate: C=CC(=O)N1CC2CN(Cc3ccccc3)CC2C1 (centres unmarked) [CA-207]
Found: 0.006162

Lookup: # iterate: O=C(c1ccccc1)[C@@H]1O[C@H]1c1ccccc1 [EN006]
Found: 0.002918

Lookup: # iterate: C=CC(=O)Nc1cccc(C(=O)c2ccccc2)c1 [CA-218]
Found: 0.03272

Lookup: # iterate: C=CC(=O)Nc1nc2ccccc2n1CCc1ccccn1 [CA-144]
Found: 0.04682

Lookup: # iterate: C=CC(=O)N1CCN(Cc2noc(C3CC3)n2)CC1 [CA-091]
Found: 0.002299

Lookup: # iterate: C=CC(=O)N1C(=O)CC(c2ccccc2)N(C(=O)C=C)c2ccccc21 (centres unmarked) [CA-165-1]
Found: 5.676

Lookup: # iterate: C=CC(=O)N1CCCC(C(=O)OCC)C1 (centres unmarked) [EL-1187]
Found: 0.00921

Lookup: # iterate: C=CC(=O)N1CC(n2cccn2)C1 [CA-173]
Found: 0.007537

Lookup: # iterate: C#CCN1CCCN(C(=O)C=C)CC1 [CA-196]
Found: 0.003735

Lookup: # iterate: C=CC(=O)NC1C2C3CCC(C3)C12 (centres unmarked) [CA-097]
Found: 0.001519

Lookup: # iterate: C=CC(=O)NC1CC(NC(=O)C2CCC2)C1 (centres unmarked) [CA-202]
Found: 0.009448

Lookup: # iterate: C=CC(=O)N1CC2CCCCCCC21 (centres unmarked) [CA-098]
Found: 0.0242

Lookup: # iterate: C=CC(=O)Nc1ccc(C(=O)c2ccccc2)cc1 [CA-219]
Found: 0.2317

Lookup: # iterate: C=CC(=O)N1CCCN2C(=O)CCC12c1ccc(OC)cc1 (centres unmarked) [EL-1168]
Found: 0.009736

Lookup: # iterate: C=CC(=O)N1CCC2(CC1)NC(=O)N(C)C2=O [CA-046]
Found: 0.003432
